Provenance of the data: PubChem BioAssay AID179

system: CEM cells HIV-1 protection, formazan growth assay; assay: NCI AIDS Antiviral Assay; settings: measured here: growth of uninfected CEM cells
The following molecules are shown together with reported IC50 values.
Number in µM, nothing else.

Some molecules with recorded IC50:
> print(dat)
                                 molecule  result
1  COc1ccc(OC)c2c1ccc1c(C)c3ccccc3c(C)c12    35.5
2      Oc1c2cc(Br)cc1CCc1cc(Br)cc(c1O)CC2    25.7

From here, focus on the item given below.
Enquiry: Form field: reported IC50 of COc1cccc2c1OC1c3ccccc3OCC1C2 (stereo unspecified)
Return: 97.7

* * *

The following molecules are shown together with reported EC50 values.
test system: CEM cells HIV-1 protection, formazan growth assay; assay: NCI AIDS Antiviral Assay

Some molecules with recorded EC50:
> print(dat)
                                   molecule    result
1  CCN1CCC(O)(/C=C/c2ccc(C)cc2)C(C(=O)/C=C/c2ccc(C)cc2)C1 (centres undefined)  > 117 µM
2  O=C1NC(Cc2ccc(O)cc2)C(=O)NC1Cc1ccc(O)cc1 (centres undefined)  > 100 µM
3  COc1ccc(-c2cn3c([nH]c(=O)c4cc(Br)ccc43)c2C#N)cc1  > 200 µM

Enquiry: Record lookup: for CEM cells HIV-1 protection, formazan growth assay, what EC50 belongs to C1OCN2CSCC12 (centres undefined) ?
Return: > 1910 µM

Enquiry: Record lookup: for CEM cells HIV-1 protection, formazan growth assay, what EC50 belongs to CC(C)(C)C(=O)OCC1CCC[N+]2(C)CCCCC12 (centres undefined) ?
Return: > 200 µM

Enquiry: Record lookup: for CEM cells HIV-1 protection, formazan growth assay, what EC50 belongs to CC(=O)N1C(=O)C(=O)c2ccccc21 ?
Return: > 200 µM

Enquiry: Record lookup: for CEM cells HIV-1 protection, formazan growth assay, what EC50 belongs to CC(C)(C)OC(=O)C1/C(=C/CBr)CN1C(=O)OC(C)(C)C (centres undefined) ?
Return: > 200 µM

Enquiry: Record lookup: for CEM cells HIV-1 protection, formazan growth assay, what EC50 belongs to CCOP(=O)(OCC)C(C#N)Cc1ccco1 (centres undefined) ?
Return: 41.7 µM

Enquiry: Record lookup: for CEM cells HIV-1 protection, formazan growth assay, what EC50 belongs to COc1cc2ccccc2cc/c1=N\O ?
Return: > 200 µM

* * *

The following compounds are shown together with reported IC50 values.
system: CEM cells HIV-1 protection, formazan growth assay; test: NCI AIDS Antiviral Assay; settings: measured here: growth of uninfected CEM cells

Enquiry: Form field: reported IC50 of CCOC(=O)CN1C(=O)c2c(c(C)n(-c3ccccc3)c2C)C1=O
Return: > 200 µM

Enquiry: Form field: reported IC50 of COc1cccc(C=C2C(=O)NC(=O)NC2=O)c1
Return: > 145 µM

Enquiry: Form field: reported IC50 of O=C(Nc1ccc(Cl)cc1)c1cc(S(=O)(=O)NC2=NC(c3ccccc3)c3cc(Cl)ccc3N2)c(SSc2cc(Cl)c(C(=O)Nc3ccc(Cl)cc3)cc2S(=O)(=O)NC2=NC(c3ccccc3)c3cc(Cl)ccc3N2)cc1Cl (centres undefined)
Return: > 200 µM

Enquiry: Form field: reported IC50 of O=c1[nH]c(=S)[nH]n1C(=S)n1[nH]c(=S)[nH]c1=O
Return: > 200 µM

Enquiry: Form field: reported IC50 of CN1C(=O)Nc2ncn(C)c2S1(=O)=O
Return: > 603 µM

Enquiry: Form field: reported IC50 of CC(C)CC(NC(=O)C(Cc1ccccc1)NC(=O)CNC(=O)CNC(=O)C(N)Cc1ccc(O)cc1)C(=O)NC1C(O)OC(CO)C(O)C1O (centres undefined)
Return: > 2190 µM

Enquiry: Form field: reported IC50 of COc1ccc(-c2nnc3cc(C)n4nnnc4n23)cc1OC
Return: > 200 µM

Enquiry: Form field: reported IC50 of CN(C)c1ccc(/C=C2/Oc3ccc(Cl)cc3C2=O)cc1
Return: > 4.79 µM

Enquiry: Form field: reported IC50 of Cc1cccc(NC(=O)CC2C(=O)Nc3ccccc3S2(=O)=O)c1C (centres undefined)
Return: > 5.62 µM

Enquiry: Form field: reported IC50 of CCOC(=O)CC(N1CC1)N1CC1
Return: > 200 µM

Enquiry: Form field: reported IC50 of NC(=O)COc1c(Br)cc(Br)cc1Br
Return: > 34.7 µM

Enquiry: Form field: reported IC50 of CCCCCCCCS(=O)(=O)O
Return: > 200 µM

* * *

tested on: CEM cells HIV-1 protection, formazan growth assay; assay: NCI AIDS Antiviral Assay; conditions: measured here: growth of uninfected CEM cells
Result Type: IC50

Molecule	IC50
CC(=O)NNc1nc(C)c(C(=O)/C=C/c2ccc(Cl)cc2)s1	> 56.2 µM
C[C@@H]1C(=O)CC2C(C)(C)CCC[C@]2(C)[C@@]12CC[C@]1(C=COC1)O2 (stereo partly specified)	> 50.1 µM
CC(C)c1cc2c(O)c(c1)Cc1cc(C(C)C)cc(c1O)Cc1cc(C(C)C)cc(c1O)Cc1cc(C(C)C)cc(c1O)C2	> 6.31 µM
CC1=C/C(=N\N(C)C)C(C(O)(C(F)(F)F)C(F)(F)F)C(C)(C)C1 (stereo unspecified)	102 µM
COc1c(C=O)c2c(c(OC)c1OC)-c1ccc(OC)c(=O)cc1[C@@H](NC(C)=O)CC2	0.011 µM

Enquiry: Form field: reported IC50 of CC1(Br)C(=O)NC(=O)N([C@H]2C[C@H](O)[C@@H](CO)O2)C1N=[N+]=[N-] (stereo partly specified)
Return: > 200 µM

Enquiry: Form field: reported IC50 of O=C(O)Cc1cccc2c(=O)c3cccc([N+](=O)[O-])c3oc12
Return: > 200 µM

Enquiry: Form field: reported IC50 of [N-]=[N+]=C(S(=O)(=O)O)S(=O)(=O)O
Return: > 200 µM

Enquiry: Form field: reported IC50 of CN(C)CCCNC(=O)c1cc(NC(=O)c2cc(NC(=O)c3cc(NC(=O)c4cccc(C(=O)Nc5cc(C(=O)Nc6cc(C(=O)Nc7cc(C(=O)NCCCN(C)C)n(C)c7)n(C)c6)n(C)c5)n4)cn3C)cn2C)cn1C
Return: > 100 µM

Enquiry: Form field: reported IC50 of C[CH2][Sn]([CH2]C)([O]C(=O)c1ccccc1F)[O][Sn]([CH2]C)([CH2]C)[O]C(=O)c1ccccc1F
Return: 25.1 µM

* * *

system: CEM cells HIV-1 protection, formazan growth assay; assay: NCI AIDS Antiviral Assay; details: measured here: growth of uninfected CEM cells
pIC50: −log10 of the molar value.
Result Type: pIC50

> print(dat)
                                   compound  result
1  C=C1[C@@H]2O[C@@H]3CC(=O)[C@@H](O)[C@]2(C(=O)N1OC)[C@H]3/C=C/C  < 3.94

Enquiry: Record lookup: for CEM cells HIV-1 protection, formazan growth assay, what pIC50 belongs to COC(=O)C1C2CC3C(OC(=O)C31)C2OC(=O)[C@](OC)(c1ccccc1)C(F)(F)F (stereo partly drawn) ?
Return: < 4.08

Enquiry: Record lookup: for CEM cells HIV-1 protection, formazan growth assay, what pIC50 belongs to COc1ccccc1NC(=O)C1=C(C)NC(C)=C(C(=O)Nc2ccccc2OC)C1c1ccc([N+](=O)[O-])cc1 ?
Return: < 5.01

* * *

Tested on: CEM cells HIV-1 protection, formazan growth assay
Assay: NCI AIDS Antiviral Assay
Settings: measured here: growth of uninfected CEM cells
Procedure: The ability of compounds to protect human CEM cells from HIV-1 infection is measured as a screen for new compounds capable of inhibiting the HIV virus. Five concentrations of drug were tested on uninfected and infected cells and cell growth was measured using a soluble formazan assay. […] Compounds that provided at least 50% protection were retested. Compounds that provided at least 50% protection on retest were listed as moderately active. […]
The following compounds are shown together with reported IC50 values.

Some compounds with recorded IC50:
> print(dat)
                                   compound     result
1     COC[C@@H](N=CN1CCc2cc(OC)ccc2C1)C(C)C   > 871 µM
2  c1ccc(CN2COc3c(c4c(c5ccccc35)OCN(Cc3ccccc3)C4)C2)cc1  > 61.7 µM
3  C=C(Br)CN1CCC2(c3ccccc3)C(=O)C([Se]c3ccccc3)CCC12 (configuration not stated)  > 14.8 µM
4                          ON=C(C1CC1)C1CC1   > 200 µM

Enquiry: Form field: reported IC50 of OC1CN=C2C=CC=CN2C1 (configuration not stated)
Return: > 200 µM

Enquiry: Form field: reported IC50 of CN(C)N1CCOC1=O
Return: > 200 µM

Enquiry: Form field: reported IC50 of O=C1c2ccccc2-c2nnc(-c3ccc([N+](=O)[O-])cc3)cc21
Return: > 100 µM
